target: 5-lipoxygenase (Human Leukocyte/PMNL 5-LPO) (Homo sapiens, UniProt P09917); construct: Human neutrophils and platelets were obtained from the blood of normal volunteers; endogenous in cells; host or cells: human blood leukocytes (neutrophils) of normal volunteers, with 0.1 to 0.5 platelets per leukocyte; assay: Inhibition of 5-lipoxygenase (5-HETE formation) in human neutrophil/platelet system; format: cell-based; settings: 4-alkoxyphenyl compounds
Sequence (P09917 whole entry): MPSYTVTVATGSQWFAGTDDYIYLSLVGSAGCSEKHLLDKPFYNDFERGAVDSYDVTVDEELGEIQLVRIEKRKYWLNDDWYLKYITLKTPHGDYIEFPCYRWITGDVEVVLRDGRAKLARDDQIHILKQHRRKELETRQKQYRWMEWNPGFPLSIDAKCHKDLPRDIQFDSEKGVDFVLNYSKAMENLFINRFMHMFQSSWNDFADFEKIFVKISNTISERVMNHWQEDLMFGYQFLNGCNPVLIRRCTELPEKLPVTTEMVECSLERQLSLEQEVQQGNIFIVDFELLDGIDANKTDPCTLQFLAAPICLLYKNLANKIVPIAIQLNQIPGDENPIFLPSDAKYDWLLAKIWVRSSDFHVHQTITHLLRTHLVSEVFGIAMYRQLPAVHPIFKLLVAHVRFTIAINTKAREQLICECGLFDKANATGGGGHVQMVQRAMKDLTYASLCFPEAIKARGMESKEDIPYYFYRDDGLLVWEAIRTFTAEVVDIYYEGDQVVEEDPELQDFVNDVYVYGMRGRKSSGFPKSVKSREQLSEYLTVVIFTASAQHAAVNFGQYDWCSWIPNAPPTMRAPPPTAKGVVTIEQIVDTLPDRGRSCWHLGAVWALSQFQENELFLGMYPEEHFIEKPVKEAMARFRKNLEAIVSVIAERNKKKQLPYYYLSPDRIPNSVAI
Each entry below carries its reported % Inhibition at 100 μm.
Assay Readout: % Inhibition at 100 μm (%)

> print(dat)
                                   molecule  value.units  observed.value
1  O=C(CCCCCCCCc1ccccc1)NO [Compound 1, 9-Phenylnonanohydroxamic Acid]            %            98.3
2  CCCCCCOc1ccc(CCCCCCCCC(=O)NO)cc1 [BMY 30230, 9(4-Hexyloxyphenyl)nonanohydroxamic acid]            %               0
3  CCCCOc1ccc(CCCCCCCCC(=O)NO)cc1 [BMY 30239, 9(4-Butoxyphenyl)nonanohydroxamic acid]            %            56.0
4  CCCCCCOc1ccc(CCCCCCCCC(=O)N(O)C(C)C)cc1 [BMY 30240]            %            45.8
5  CCCCCCOc1ccc(CCCCCCCCC(=O)N(C)O)cc1 [BMY 30241]            %            95.9

###

Each entry below carries its reported pIC50.
biological target: 5-lipoxygenase (Human Leukocyte/PMNL 5-LPO) (Homo sapiens); construct: Human neutrophils and platelets were obtained from the blood of normal volunteers; endogenous in cells; host or cells: human blood leukocytes (neutrophils) of normal volunteers, with 0.1 to 0.5 platelets per leukocyte; test: Inhibition of 5-lipoxygenase (5-HETE formation) in human neutrophil/platelet system; format: cell-based; conditions: ring-substituted 9-phenylnonanohydroxamic acids; read-out: IC50 (5-lipoxygenase)
pIC50: −log10 of the molar value.
Assay Readout: pIC50

> print(dat)
                                   molecule  assay.readout  observed.value
1  Cc1cccc(CCCCCCCCC(=O)NO)c1 [BMY 30182, 9(3-methylphenyl)nonanohydroxamic acid]          pIC50            5.21
2  COc1cccc(CCCCCCCCC(=O)NO)c1 [BMY 30181, 9(3-methoxyphenyl)nonanohydroxamic acid]          pIC50            5.27
3  O=C(CCCCCCCCc1ccc(Cl)cc1)NO [BMY 30174, 9(4-chlorophenyl)nonanohydroxamic acid]          pIC50            5.21
4  COc1ccc(CCCCCCCCC(=O)NO)cc1 [BMY 30173, 9(4-Methoxyphenyl)nonanohydroxamic acid]          pIC50            5.62

###

target: Human Platelet CO (Homo sapiens); construct: Human neutrophils and platelets were obtained from the blood of normal volunteers; endogenous in cells; assay: Inhibition of CO, human platelet; details: 95% confidence interval given for some
Sequence (P23219 24-599): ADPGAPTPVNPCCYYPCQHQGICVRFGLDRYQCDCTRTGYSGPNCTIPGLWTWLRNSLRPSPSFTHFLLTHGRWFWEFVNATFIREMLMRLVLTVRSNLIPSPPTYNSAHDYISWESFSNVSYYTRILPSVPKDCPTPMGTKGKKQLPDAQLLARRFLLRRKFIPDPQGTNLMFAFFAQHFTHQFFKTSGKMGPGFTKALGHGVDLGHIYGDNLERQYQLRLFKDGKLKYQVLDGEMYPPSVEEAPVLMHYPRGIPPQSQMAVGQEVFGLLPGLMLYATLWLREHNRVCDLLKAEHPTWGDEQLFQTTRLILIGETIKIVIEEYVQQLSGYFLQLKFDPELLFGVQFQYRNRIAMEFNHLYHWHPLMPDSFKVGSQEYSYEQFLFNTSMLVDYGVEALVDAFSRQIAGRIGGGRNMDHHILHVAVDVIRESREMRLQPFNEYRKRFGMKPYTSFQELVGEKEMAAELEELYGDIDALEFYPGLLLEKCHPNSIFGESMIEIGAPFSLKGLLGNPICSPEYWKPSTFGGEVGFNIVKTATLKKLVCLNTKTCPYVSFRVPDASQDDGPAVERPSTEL
pIC50: −log10 of the molar value.
Assay Readout: pIC50

> print(dat)
                                   compound  assay.readout  observed.value
1                  O=C(CCCCCCCCCc1ccccc1)NO          pIC50            4.49
2                CN(O)C(=O)CCCCCCCCc1ccccc1          pIC50            5.68
3                    O=C(CCCCCCCc1ccccc1)NO          pIC50            4.59
4             CC(C)N(O)C(=O)CCCCCCCc1ccccc1          pIC50            5.38
5  CN(O)C(=O)CCCCCCCc1ccccc1 [BMY30208, N-methyl-8-phenyloctanohydroxamic acid]          pIC50            5.54
